Experiment Summary: MTT cytotoxicity assay
Settings: mouse
Hi there, I'd appreciate the recorded viability at 24 h, 2 µg/mL for every entry that follows.
One number for each entry, in %.

Molecule: CC(=O)Oc1ccc2c(C)cc(=O)oc2c1C(OC(=O)Cc1ccccc1)C(=O)NCc1ccc(F)cc1 (centres unmarked)
viability at 24 h, 2 µg/mL, %: 87

query: Which viability at 24 h, 2 µg/mL is listed for CC(=O)Oc1ccccc1C(OC(=O)Cc1ccccc1)C(=O)NCc1ccccc1 (centres unmarked) ?
result: 66.5

----------
Hi there, I'd appreciate the recorded melting point for every entry that follows.

Compound: COc1ccc(CNC(=O)C(OC(=O)Cc2ccccc2)c2c(OC(C)=O)ccc3c(C(F)(F)F)cc(=O)oc23)cc1 (stereo not drawn)
melting point: 54 to 58 °C

Compound: CC(=O)Oc1ccc2c(C(F)(F)F)cc(=O)oc2c1C(OC(=O)Cc1ccccc1)C(=O)NCc1ccc(F)cc1 (stereo not drawn)
melting point: 51 to 55 °C

Please turn your attention to the following entry.
query: Which melting point is listed for COc1ccc(CNC(=O)C(OC(=O)Cc2ccccc2)c2c(OC(C)=O)ccc3ccc(=O)oc23)cc1 (stereo not drawn) ?
result: 57 to 59 °C

----------
Experiment Summary: MTT cytotoxicity assay
Settings: mouse, BALB/c3T3 mouse embryonic fibroblast cells
Observable: viability

query: Which viability is listed for Cc1onc(-c2ccccc2Cl)c1C(=O)N[C@@H]1C(=O)N2[C@@H]1SC(C)(C)[C@@H]2C(=O)O [cloxacillin, reference compound] ?
result: 85 to 89.9%

----------
Observable: melting point

Molecule: COc1ccc(CNC(=O)C(O)c2ccc(Br)cc2O)cc1 (centres unmarked)
Value Measured: 96 to 100 °C
--
Molecule: CC(=O)Oc1ccc2ccc(=O)oc2c1C(OC(=O)Cc1ccccc1)C(=O)NCc1ccc(F)cc1 (centres unmarked)
Value Measured: 61 to 63 °C

Kindly give each listed record's melting point.
1. CC(=O)Oc1cc(Br)ccc1C(OC(=O)Cc1ccccc1)C(=O)NCc1ccccc1 (centres unmarked)
2. COc1ccc(CNC(=O)C(OC(=O)Cc2ccccc2)c2ccc(Br)cc2OC(C)=O)cc1 (centres unmarked)
3. CC(=O)Oc1ccc2ccc(=O)oc2c1C(OC(=O)Cc1ccccc1)C(=O)NCc1ccccc1 (centres unmarked)
4. COc1ccc(CNC(=O)C(OC(=O)Cc2ccccc2)c2c(OC(C)=O)ccc3c(C)cc(=O)oc23)cc1 (centres unmarked)
5. CC(=O)Oc1ccc2c(C)cc(=O)oc2c1C(OC(=O)Cc1ccccc1)C(=O)NCc1ccc(F)cc1 (centres unmarked)

result:
1: 122 to 124 °C; 2: 107 to 108 °C; 3: 64 to 66 °C; 4: 66 to 68 °C; 5: 56 to 59 °C

query: Which melting point is listed for CC(=O)Oc1ccc2c(C(F)(F)F)cc(=O)oc2c1C(OC(=O)Cc1ccccc1)C(=O)NCc1ccccc1 (centres unmarked) ?
result: 54 to 57 °C

----------
Test system: E. coli (K12 (ATCC 25404), R2 (ATCC 39544), R3 (ATCC 11775), R4 (ATCC 39543)), A. baumannii (ATCC 17978), P. aeruginosa (ATCC 15442), E. cloacae (ATCC 49141) …
Experiment Summary: Minimum inhibitory concentration (MIC), microtiter plate method with resazurin
Assay type: cell-based, S. aureus
Settings: Gram-negative and Gram-positive bacteria

Compound: COc1ccc(CNC(=O)C(OC(=O)Cc2ccccc2)c2c(OC(C)=O)ccc3c(C)cc(=O)oc23)cc1 (stereo not shown)
spectrum of antibacterial activity: broad-spectrum activity

Compound: COc1ccc(CNC(=O)C(OC(=O)Cc2ccccc2)c2c(OC(C)=O)ccc3ccc(=O)oc23)cc1 (stereo not shown)
spectrum of antibacterial activity: broad-spectrum activity

Compound: COc1ccc(CNC(=O)C(OC(=O)Cc2ccccc2)c2c(OC(C)=O)ccc3c(C(F)(F)F)cc(=O)oc23)cc1 (stereo not shown)
spectrum of antibacterial activity: broad-spectrum activity

Compound: CC(=O)Oc1ccc2ccc(=O)oc2c1C(OC(=O)Cc1ccccc1)C(=O)NCc1ccccc1 (stereo not shown)
spectrum of antibacterial activity: broad-spectrum activity

Reference source: paper PMC11312933
